Where do the numbers come from? From ChEMBL document CHEMBL1146205.

Target: Caspase-3 (Homo sapiens)
Assay: Inhibition of human recombinant caspase 3
pIC50: −log10 of the molar value.
parameter: pIC50

# smiles-str, parameter, value
data = [
    ("N#CC(C#N)=C1C(=O)N(Cc2ccc(Br)cc2)c2ccc(S(=O)(=O)N3CCC[C@H]3COc3ccccc3)cc21", "pIC50", 7.70),
    ("N#CC(C#N)=C1C(=O)N(Cc2ccc(O)cc2)c2ccc(S(=O)(=O)N3CCC[C@H]3COc3cccnc3)cc21", "pIC50", 8.11),
]

(A) N#CC(C#N)=C1C(=O)N(Cc2ccccc2)c2ccc(S(=O)(=O)N3CCC[C@H]3COc3ccccc3)cc21
(B) COc1ccc(CN2C(=O)C(=C(C#N)C#N)c3cc(S(=O)(=O)N4CCC[C@H]4COc4cccnc4)ccc32)cc1
Just tell me: smaller pIC50 value, A or B ? Indicate your choice by writing its label.
A
(A: 7.56, B: 8.11)

====

Molecular target: Caspase-3 (Homo sapiens, UniProt P42574)
Sequence (P42574 whole entry): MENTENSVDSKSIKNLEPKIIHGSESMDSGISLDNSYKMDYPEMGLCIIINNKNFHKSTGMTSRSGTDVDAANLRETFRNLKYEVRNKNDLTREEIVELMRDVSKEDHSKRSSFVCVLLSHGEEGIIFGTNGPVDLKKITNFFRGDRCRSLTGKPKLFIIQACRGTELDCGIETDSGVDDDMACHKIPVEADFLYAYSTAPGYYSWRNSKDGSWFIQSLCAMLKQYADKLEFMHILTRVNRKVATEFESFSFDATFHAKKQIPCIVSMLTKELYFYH
Assay: Inhibition of human recombinant caspase 3
parameter: IC50 (nM)

Below, 5 compounds whose answers are already recorded.
# smiles-str, units-text, IC50
data = [
    ("N#CC(C#N)=C1C(=O)N(Cc2ccc(Br)cc2)c2ccc(S(=O)(=O)N3CCC[C@H]3COc3cccnc3)cc21", "nM", 5.1),
    ("O=C1C(=O)N(Cc2ccc(Br)cc2)c2ccc(S(=O)(=O)N3CCC[C@H]3COc3cccnc3)cc21", "nM", 3.6),
    ("N#CC(C#N)=C1C(=O)N(Cc2ccccc2)c2ccc(S(=O)(=O)N3CCC[C@H]3COc3cccnc3)cc21", "nM", 7.6),
    ("CN1C(=O)C(=C(C#N)C#N)c2cc(S(=O)(=O)N3CCC[C@H]3COc3ccccc3)ccc21", "nM", 119),
    ("O=C1C(=O)N(Cc2ccc(Br)cc2)c2ccc(S(=O)(=O)N3CCC[C@H]3COc3ccccc3)cc21", "nM", 9.85),
]

(I) N#CC(C#N)=C1C(=O)Nc2ccc(S(=O)(=O)N3CCC[C@H]3COc3ccccc3)cc21
(II) N#CC(C#N)=C1C(=O)N(Cc2ccc(O)cc2)c2ccc(S(=O)(=O)N3CCC[C@H]3COc3ccccc3)cc21
Just tell me: smaller IC50 value, I or II ? Indicate your choice by writing its label.
II
(II: 31.8 nM, I: 272 nM)

====

Assay: Partition coefficient of the compound, log P
Assay type: physicochemical
Conditions: octanol/water
parameter: logP

Below, 8 compounds whose answers are already recorded.
# smiles-str, value
records = [
    ("COc1ccc(CN2C(=O)C(=C(C#N)C#N)c3cc(S(=O)(=O)N4CCC[C@H]4COc4cccnc4)ccc32)cc1", 2.36),
    ("O=C1C(=O)N(Cc2ccc(Br)cc2)c2ccc(S(=O)(=O)N3CCC[C@H]3COc3ccccc3)cc21", 4.82),
    ("N#CC(C#N)=C1C(=O)N(Cc2ccc(Br)cc2)c2ccc(S(=O)(=O)N3CCC[C@H]3COc3cccnc3)cc21", 3.22),
    ("N#CC(C#N)=C1C(=O)N(Cc2ccccc2)c2ccc(S(=O)(=O)N3CCC[C@H]3COc3cccnc3)cc21", 2.45),
    ("N#CC(C#N)=C1C(=O)N(Cc2ccc(O)cc2)c2ccc(S(=O)(=O)N3CCC[C@H]3COc3ccccc3)cc21", 2.77),
    ("O=C1C(=O)N(Cc2ccc(Br)cc2)c2ccc(S(=O)(=O)N3CCC[C@H]3COc3cccnc3)cc21", 3.76),
    ("CN1C(=O)C(=C(C#N)C#N)c2cc(S(=O)(=O)N3CCC[C@H]3COc3ccccc3)ccc21", 1.71),
    ("N#CC(C#N)=C1C(=O)N(Cc2ccc(Br)cc2)c2ccc(S(=O)(=O)N3CCC[C@H]3COc3ccccc3)cc21", 4.28),
]

(a) N#CC(C#N)=C1C(=O)N(Cc2ccc(O)cc2)c2ccc(S(=O)(=O)N3CCC[C@H]3COc3cccnc3)cc21
(b) N#CC(C#N)=C1C(=O)N(Cc2ccccc2)c2ccc(S(=O)(=O)N3CCC[C@H]3COc3ccccc3)cc21
(c) N#CC(C#N)=C1C(=O)Nc2ccc(S(=O)(=O)N3CCC[C@H]3COc3ccccc3)cc21
Arrange these compounds by their logP, starting with the largest number. Reply with the item labels sorted in the order that was asked for.
b, a, c
